assay.remarks: CCTE_Mundy_HCI_Cortical_NOG_NeuriteLength: CCTE's Neurite Outgrowth Assay in rat cortical cells for Neurite Length, Mundy Lab (AID 2284213)
Active and inactive are the calls of the source. How the source made its calls: active means hit-call score of the fitted dose curve at least 0.9, where 1 is the maximum; inactive means score below 0.9.
# valid calls are active, inactive; nothing else

Use the examples below as a reference point.
{"compound": "CCOc1cc(Oc2ccc(C(F)(F)F)cc2Cl)ccc1[N+](=O)[O-]", "class.name": "active"}
{"compound": "N#Cc1nn(-c2c(Cl)cc(C(F)(F)F)cc2Cl)c(N)c1S(=O)C(F)(F)F (stereo not drawn)", "class.name": "inactive"}
{"compound": "CO/C=C(/C(=O)OC)c1ccccc1Oc1cc(Oc2ccccc2C#N)ncn1", "class.name": "active"}
{"compound": "C=CC1(C)OC(=O)N(c2cc(Cl)cc(Cl)c2)C1=O (stereo not drawn)", "class.name": "inactive"}
{"compound": "COC(=O)N(OC)c1ccccc1COc1ccn(-c2ccc(Cl)cc2)n1", "class.name": "active"}
{"compound": "C=CCC1=C(C)[C@@H](OC(=O)[C@@H]2[C@@H](C=C(C)C)C2(C)C)CC1=O", "class.name": "inactive"}
{"compound": "COP(N)(=O)SC (stereo not drawn)", "class.name": "inactive"}

From here, focus on the item given below.
Per the records of this test, what outcome belongs to CCCCNC(=O)n1c(NC(=O)OC)nc2ccccc21 ?
active
